Assay: Human in vivo PK data: concentration-dose ratio (CDR) and toxicokinetic variability factor (TKVF)
Conditions: Fetus population; TKVF95 = p95 / weighted mean concentration-dose ratio
For each of the compounds below, state its TKVF.
Just the number, please, no unit after it.

-- ask Look up TKVF: C[C@@H]1CCO[C@H]2Cn3cc(C(=O)NCc4ccc(F)cc4F)c(=O)c(O)c3C(=O)N12 [Dolutegravir]
-- reply 1.40

-- ask Query: TKVF; subject: CCCC(CCC)C(=O)O [Valproic acid (VPA), Valproic acid]
-- reply 1.52

-- ask Which TKVF value belongs to CCN(CC)CCNC(=O)c1cc(Cl)c(N)cc1OC [Metoclopramide] ?
-- reply 1.97

-- ask Consider the compound shown here: CC1=C(/C=C/C(C)=C/C=C/C(C)=C/CO)C(C)(C)CCC1 [Retinol] What is its recorded TKVF?
-- reply 1.86

---

Conditions: human
Give Renal Clearance for every item shown.
Report as a plain number; the unit L/h is understood.

-- ask Name the recorded Renal Clearance for CC(C)(C)c1ccc(CCOc2ncnc3ccccc23)cc1 .
-- reply 0.577

-- ask GET /values?readout=Renal Clearance&item= CCOC(=O)c1ccccc1C(=O)OCC [Diethyl phthalate]
-- reply 1.371

-- ask So what's the measured Renal Clearance for this one? CCOc1cc(CCC(C)=O)ccc1O
-- reply 2.012

-- ask Look at this compound and give its reported Renal Clearance. CCCCOC(=O)c1ccccc1C(=O)OCCCC [Dibutyl phthalate]
-- reply 0.2

---

Experiment: Human in vivo PK data: concentration-dose ratio (CDR) and toxicokinetic variability factor (TKVF)
Settings: female, human, in vivo, po
recorded_metric: TKVF
Keep it simple and answer with nothing but the number.

-- ask Recorded TKVF of CC(=O)CC(c1ccccc1)c1c(O)c2ccccc2oc1=O (centres unmarked) , please.
-- reply 1.93

-- ask So what does the record say about TKVF for CN(CCOc1ccc(CC2SC(=O)NC2=O)cc1)c1ccccn1 (centres unmarked) ?
-- reply 1.71

-- ask For the compound C[C@H]1O[C@@H](O[C@H]2[C@@H](O)C[C@H](O[C@H]3[C@@H](O)C[C@H](O[C@H]4CC[C@@]5(C)[C@H](CC[C@@H]6[C@@H]5C[C@@H](O)[C@]5(C)[C@@H](C7=CC(=O)OC7)CC[C@]65O)C4)O[C@@H]3C)O[C@@H]2C)C[C@H](O)[C@@H]1O , what TKVF is on record?
-- reply 2.35

-- ask Form field: reported TKVF of CN(C)C(=N)N=C(N)N
-- reply 2.75

-- ask Value lookup for TKVF; key = Cn1c(=O)c2c(ncn2C)n(C)c1=O
-- reply 2.42

---

Assay: Human in vivo PK data: concentration-dose ratio (CDR) and toxicokinetic variability factor (TKVF);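 also: Literature-pooled human in vivo PK data, plasma, serum or cord blood concentrations per daily dose, weighted by study population size across non-pregnant, pregnant and fetal groups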
Conditions: Fetus population
recorded_metric: CDR fold difference to non-pregnant
// keep it numeric: no unit symbol after the value

-- ask Value lookup for CDR fold difference to non-pregnant; key = CCCC(CCC)C(=O)O
-- reply 0.78

-- ask Look at this compound and give its reported CDR fold difference to non-pregnant. CC1=C(/C=C/C(C)=C/C=C/C(C)=C/CO)C(C)(C)CCC1
-- reply 0.82

-- ask Would you kindly share the measured CDR fold difference to non-pregnant for C[C@@H]1CCO[C@H]2Cn3cc(C(=O)NCc4ccc(F)cc4F)c(=O)c(O)c3C(=O)N12 ?
-- reply 0.46

-- ask Value lookup for CDR fold difference to non-pregnant; key = C[n+]1ccc(-c2cc[n+](C)cc2)cc1
-- reply 0.06
